tested on: U2OS; test: Multiplex assay against U2OS; assay type: toxicity, cell-based; conditions: human, 24 h, 10 µM, compound concentration 10 uM, replicate 1
Provide the reported Population Healthy Nuclei (%) of each item.
Form entry: value (%) — number only.

Problem: // query Population Healthy Nuclei (%) value for entry CCC(=O)O[C@]1(C(=O)SCF)[C@H](C)C[C@H]2[C@@H]3C[C@H](F)C4=CC(=O)C=C[C@]4(C)[C@@]3(F)[C@@H](O)C[C@@]21C [FLUTICASONE PROPIONATE]
Solution: 61

Problem: Let us now turn to "CC(=O)c1cc(-c2cc(C(=O)NC3CC3)ccc2C)c2ncccn12"
Solution: 66

Problem: Let us now turn to "O=C(O)c1ccc2cc(-c3ccc(O)c(C45CC6CC(CC(C6)C4)C5)c3)ccc2c1"
Solution: 77

Problem: Let us now turn to "CCCn1c(=O)c2[nH]c(C34CC5CC(CC3C5)C4)nc2n(CCC)c1=O"
Solution: 60

Problem: Let us now turn to "COc1cc2c(NC3CCN(C(C)C)CC3)nc(N3CCC(F)(F)CC3)nc2cc1OCCCN1CCCC1"
Solution: 60

Problem: Let us now turn to "Cc1cn(-c2cc(NC(=O)c3ccc4c(c3)CN(c3cncnc3)C[C@@H]4C)cc(C(F)(F)F)c2)cn1"
Solution: 85

Problem: Let us now turn to "N#Cc1cnc(Nc2cc(NC[C@H]3CNCCO3)c(C(F)(F)F)cn2)cn1"
Solution: 88

Problem: Let us now turn to "CNc1oc(-c2cccc3ccccc23)nc1C#N"
Solution: 17

Problem: Let us now turn to "CN(C)CCOc1ccc(-c2nc(-c3ccncc3)c(-c3ccc4c(c3)CC/C4=N\O)[nH]2)cc1"
Solution: 90

Problem: Let us now turn to "Cc1cc2c(cc1N1C(=O)c3cccc4c(CCCO)ccc(c34)C1=O)n(C)c(=O)n2C"
Solution: 70

Problem: Let us now turn to "c1ccc2oc(-c3csc(C4CCN(Cc5nc6ncccc6[nH]5)CC4)n3)cc2c1"
Solution: 90

Problem: Let us now turn to "CC(C)(C)c1cnc(CSc2cnc(NC(=O)C3CCNCC3)s2)o1"
Solution: 45
